Data provenance: patent US20240270821A1

Listed here: items and their measured Relative cAMP EC50.
- tested system: T1, human GIP receptor (human) (UniProt P48546)
- T1 sequence (looked up): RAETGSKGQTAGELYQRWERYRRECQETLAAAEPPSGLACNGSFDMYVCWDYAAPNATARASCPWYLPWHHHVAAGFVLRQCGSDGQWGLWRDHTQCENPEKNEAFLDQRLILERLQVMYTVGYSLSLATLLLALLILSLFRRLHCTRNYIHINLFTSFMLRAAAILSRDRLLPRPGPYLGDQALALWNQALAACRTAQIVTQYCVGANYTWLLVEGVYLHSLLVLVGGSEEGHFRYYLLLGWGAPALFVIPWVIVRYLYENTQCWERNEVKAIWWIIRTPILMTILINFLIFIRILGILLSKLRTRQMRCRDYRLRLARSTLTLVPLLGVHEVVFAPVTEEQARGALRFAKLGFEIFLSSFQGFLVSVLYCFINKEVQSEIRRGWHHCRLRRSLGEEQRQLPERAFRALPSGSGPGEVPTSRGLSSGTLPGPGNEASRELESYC
- protocol: cell-based or functional assay
// return numeric value only (unit: nM, not printed)

As a guide, the following entries are already answered.
binder	endpoint unit	Relative cAMP EC50
YXQGTFTSDXXIXLDXKAQXQFIQXLIEXGPSSGAPPPSGGGE (not fully specified; N-methyl Tyr, non-natural residues, acylation, C-terminal amide; synthetic construct; SITE 1: note = N-methyl-tyrosine; SITE 2: note = 2-Aminoisobutyric Acid; SITE 10: note = 3-(4-Pyridyl)-L-alanine; SITE 11: note = alpha-methyl-L-serine; SITE 13: note = alpha-methyl-leucine; SITE 16: note = L-ornithine; SITE 17: note = Lysine is chemically modified through conju) [Example 1135]	nM	0.0126
YXQGTXTSDXXIXLDXKAQXXFIEYLIEGGPSSGEPPPSGTGE (not fully specified; C-terminal amide; synthetic construct; SITE 2: note = 2-Aminoisobutyric Acid; SITE 6: note = alpha-methyl-2-fluoro-L-phenylalanine; SITE 10: note = 3-(4-Pyridyl)-L-alanine; SITE 11: note = alpha-methyl-L-serine; SITE 13: note = alpha-methyl-leucine; SITE 16: note = L-ornithine; SITE 17: note = Lysine is chemically mo) [Example 524]	nM	0.0266

API: the following record is the query input.
IN: State the recorded Relative cAMP EC50 for this entry: YXQGTXTSDXXIXLDXQAQXEFIEXLIEGGPSSGAPPPSGGGE (not fully specified; no fatty acid conjugated; synthetic construct; SITE 2: note = 2-Aminoisobutyric Acid; SITE 6: note = alpha-methyl-2-fluoro-L-phenylalanine; SITE 10: note = …; SITE 11: note = alpha-methyl-L-serine; SITE 13: note = alpha-methyl-leucine; SITE 16: note = L-ornithine; SITE 20: note = 3-(4-Pyridyl)-L-alanine) [Example 1234]
OUT: 0.0135
